assay: Cytotoxicity against human HEK293T cells assessed as cell viability at 200 micromol/L incubated for 24 hrs by CCK-8 assay relative to control; assay type: toxicity, cell-based, HEK-293T; details: dose 200 µmol/L, read-out: Activity
REPORTED ENDPOINT: viability at 24 h, 200 µM

smiles_representation=C=C[C@]1(C)C[C@@H](OC(=O)CSc2nc(OC(=O)c3ccc(C(C)(C)C)cc3)cs2)[C@]2(C)[C@H](C)CC[C@]3(CCC(=O)[C@H]32)[C@@H](C)[C@@H]1O result=60%

###

assay: Acute toxicity in po dosed rat assessed as lethal dose measured for 14 days […]; type: organism-based; details: in vivo, time 14 day
REPORTED ENDPOINT: LD50 at 336 h (mg/kg)

smiles_representation=C=C[C@]1(C)C[C@@H](OC(=O)CSc2nc(OC(=O)c3ccc(C(C)(C)C)cc3)cs2)[C@]2(C)[C@H](C)CC[C@]3(CCC(=O)[C@H]32)[C@@H](C)[C@@H]1O reported_endpoint="LD50 at 336 h" numeric_readout=2000

###

assay: Cytotoxicity against human HEK293T cells assessed as survival rate incubated for 24 hrs by CCK-8 assay; format: toxicity, cell-based, HEK-293T
REPORTED ENDPOINT: IC50 at 24 h

compound="C=C[C@]1(C)C[C@@H](OC(=O)CSC(C)(C)CNC(=O)[C@H](N)C(C)C)[C@]2(C)[C@H](C)CC[C@]3(CCC(=O)[C@H]32)[C@@H](C)[C@@H]1O [VALNEMULIN]" result="52 µM"

###

tested on: Mycoplasma; assay: Antibacterial activity against Mycoplasma F3 assessed as inhibition of visible bacterial growth incubated for 24 hrs by CLSI based broth microdilution method; type: functional
compounds and their reported MIC
REPORTED ENDPOINT: MIC (µg/mL)

smiles_representation=C=C[C@]1(C)C[C@@H](OC(=O)CSc2nc(OC(=O)c3ccc(C)cc3)cs2)[C@]2(C)[C@H](C)CC[C@]3(CCC(=O)[C@H]32)[C@@H](C)[C@@H]1O u=µg/mL numeric_readout=0.5
smiles_representation=C=C[C@]1(C)C[C@@H](OC(=O)CSc2nc(OC(=O)c3cccc(C)c3)cs2)[C@]2(C)[C@H](C)CC[C@]3(CCC(=O)[C@H]32)[C@@H](C)[C@@H]1O u=µg/mL numeric_readout=0.5
smiles_representation=C=C[C@]1(C)C[C@@H](OC(=O)CSc2nc(OC(=O)C3CCCC3)cs2)[C@]2(C)[C@H](C)CC[C@]3(CCC(=O)[C@H]32)[C@@H](C)[C@@H]1O u=µg/mL numeric_readout=0.25
smiles_representation=C=C[C@]1(C)C[C@@H](OC(=O)CSc2nc(OC(=O)c3ccc(F)cc3)cs2)[C@]2(C)[C@H](C)CC[C@]3(CCC(=O)[C@H]32)[C@@H](C)[C@@H]1O u=µg/mL numeric_readout=0.25
smiles_representation=C=C[C@]1(C)C[C@@H](OC(=O)CSc2nc(OC(=O)C3CCC3)cs2)[C@]2(C)[C@H](C)CC[C@]3(CCC(=O)[C@H]32)[C@@H](C)[C@@H]1O u=µg/mL numeric_readout=0.5
smiles_representation=C=C[C@]1(C)C[C@@H](OC(=O)CSCCN(CC)CC)[C@]2(C)[C@H](C)CC[C@]3(CCC(=O)[C@H]32)[C@@H](C)[C@@H]1O u=µg/mL numeric_readout=0.008
